B1: Membrane-associated guanylate kinase, WW and PDZ domain-containing protein 2, residues 601 to 682; numbered along this chain, Q86UL8 (parent)
chain: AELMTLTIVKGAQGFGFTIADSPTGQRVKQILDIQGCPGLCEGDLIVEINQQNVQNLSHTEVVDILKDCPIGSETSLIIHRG

# Variants of: B1
# Method Description: abundance fitness (aPCA) (normalised: wild type 0, dead -1); higher = more abundant; growth selection in yeast, the domain comes from the species named
# Condition Set: Homo sapiens
Readout Kind: abundance fitness
The response must contain the number and no unit.

Consider the reported abundance fitness for these variants:
Note to self: abundance fitness recorded for "F17N" was -1.36

Note to self: abundance fitness recorded for "D68F" was -0.304

Note to self: abundance fitness recorded for "G36C" was -0.044

Note to self: abundance fitness recorded for "V54K" was -0.855

Note to self: abundance fitness recorded for "I78P" was -1.13

***
Note to self: abundance fitness recorded for "I79L" was 0.036
